Hey, just so you know, these numbers are from patent EP1816136A1.

target_or_test_system: GPR8 (Homo sapiens)
Construct: expressed in transfected cells; host or cells: HEK293/CRE-BLA cells (AURORA), expression vector pIRES-hygro (Clontech)
Sequence (P48146 whole entry): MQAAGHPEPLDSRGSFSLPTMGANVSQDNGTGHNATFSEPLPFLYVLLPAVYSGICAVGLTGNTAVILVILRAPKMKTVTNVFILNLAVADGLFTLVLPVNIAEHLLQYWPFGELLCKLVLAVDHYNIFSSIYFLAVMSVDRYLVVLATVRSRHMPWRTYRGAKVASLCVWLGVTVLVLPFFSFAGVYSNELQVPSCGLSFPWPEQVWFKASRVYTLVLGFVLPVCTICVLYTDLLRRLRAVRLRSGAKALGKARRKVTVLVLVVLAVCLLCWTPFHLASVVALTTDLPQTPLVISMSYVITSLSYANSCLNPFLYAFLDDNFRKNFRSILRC
run_description: Binding inhibition test with [125I]-[Phe2]-hNPW(1-23), GPR8 membrane preparation
condition_parameters: Table 2, membrane preparation of cells expressing GPR8
Non-standard residues stand in square brackets, D forms with d. Residues, ends and D or L forms follow the SMILES beside them. 3Abz = Nc1cccc(C(=O)O)c1; 4Abz = Nc1ccc(C(=O)O)cc1; Ava = NCCCCC(=O)O
quantity_name: IC50 (nM)
// return numeric value only (unit: nM, not printed)

CC(C)C[C@H](NC(=O)CNC(=O)[C@H](CO)NC(=O)[C@H](CC(C)C)NC(=O)[C@H](CC(C)C)NC(=O)CNC(=O)[C@H](C)NC(=O)[C@H](C)NC(=O)[C@H](CCCNC(=N)N)NC(=O)CNC(=O)c1cccc(NC(=O)CCCCNC(=O)CCCCNC(=O)[C@H](CCCCN)NC(=O)[C@H](Cc2ccc(O)cc2)NC(=O)[C@@H](N)Cc2c[nH]c3ccccc23)c1)C(N)=O [compound 11] (H-WYK[Ava][Ava][3Abz]GRAAGLLSGL-NH2) : 13
CC(C)C[C@H](NC(=O)CNC(=O)[C@H](CO)NC(=O)[C@H](CC(C)C)NC(=O)[C@H](CC(C)C)NC(=O)CNC(=O)[C@H](C)NC(=O)[C@H](C)NC(=O)[C@H](CCCNC(=N)N)NC(=O)CNC(=O)c1ccc(NC(=O)CCCCNC(=O)CCCCNC(=O)[C@H](CCCCN)NC(=O)[C@H](Cc2ccc(O)cc2)NC(=O)[C@@H](N)Cc2c[nH]c3ccccc23)cc1)C(N)=O [compound 12] (H-WYK[Ava][Ava][4Abz]GRAAGLLSGL-NH2) : 5.1

Okay, now this molecule:
Missing value: IC50, GPR8 (Homo sapiens), entry CC(C)C[C@H](NC(=O)CNC(=O)[C@H](CO)NC(=O)[C@H](CC(C)C)NC(=O)[C@H](CC(C)C)NC(=O)CNC(=O)[C@H](C)NC(=O)[C@H](C)NC(=O)[C@H](CCCNC(=N)N)NC(=O)CNC(=O)CCCCNC(=O)CCCCNC(=O)c1cccc(NC(=O)[C@H](CCCCN)NC(=O)[C@H](Cc2ccc(O)cc2)NC(=O)[C@@H](N)Cc2c[nH]c3ccccc23)c1)C(N)=O [compound 17] (H-WYK[3Abz][Ava][Ava]GRAAGLLSGL-NH2) . Fill in?
33
